Tgt: Luciferin 4-monooxygenase (Photinus pyralis) (UniProt P08659)
Sequence (P08659 whole entry, looked up): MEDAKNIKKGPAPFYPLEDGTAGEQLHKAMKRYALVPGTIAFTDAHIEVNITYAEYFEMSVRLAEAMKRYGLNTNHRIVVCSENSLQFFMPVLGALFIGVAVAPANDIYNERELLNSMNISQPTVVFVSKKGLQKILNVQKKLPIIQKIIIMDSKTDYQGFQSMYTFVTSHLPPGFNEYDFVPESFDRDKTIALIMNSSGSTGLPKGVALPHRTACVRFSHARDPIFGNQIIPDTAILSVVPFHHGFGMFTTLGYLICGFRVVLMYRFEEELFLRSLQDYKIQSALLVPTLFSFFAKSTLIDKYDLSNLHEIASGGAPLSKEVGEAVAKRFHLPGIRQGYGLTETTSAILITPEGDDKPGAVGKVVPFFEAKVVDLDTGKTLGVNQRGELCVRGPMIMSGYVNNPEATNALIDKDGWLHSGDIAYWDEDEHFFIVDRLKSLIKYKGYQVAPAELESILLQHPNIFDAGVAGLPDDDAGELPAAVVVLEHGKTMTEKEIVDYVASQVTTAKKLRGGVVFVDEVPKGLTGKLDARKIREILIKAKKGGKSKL
Protocol Details: qHTS assay to identify small molecule inhibitors of firefly luciferase (AID 1224835); also: nearly all actives have a fitted effect of over 25% in size
Condition: purified P. pyralis luciferase, luminescence inhibition; series mostly up to 115 µM
Inconclusive results are not listed. Active and inactive are the calls of the source. Calls follow the shape of the dose curve; as a rule, active = well fitted inhibition curve with a large enough effect in the repeat runs; inconclusive = weak or mixed curves; inactive = flat fitted curve, though single readings scatter.
Labels: active, inactive

{"Compound": "CSC1=N[C@@](C)(c2ccccc2)C(=O)N1Nc1ccccc1", "Cat": "inactive"}
{"Compound": "Fc1ccc(C(OCCN2CCN(CCCc3ccccc3)CC2)c2ccc(F)cc2)cc1", "Cat": "inactive"}
{"Compound": "O=C(Cl)c1ccccc1F", "Cat": "inactive"}
{"Compound": "CC[C@]1(O)CC[C@H]2[C@@H]3CCC4=CCCC[C@@H]4[C@H]3CC[C@@]21C", "Cat": "inactive"}
{"Compound": "O=[N+]([O-])c1ccc(Cl)c(Cl)c1Cl", "Cat": "inactive"}
{"Compound": "Cc1ccc(C)c2ccccc12", "Cat": "inactive"}
{"Compound": "Cc1ccccc1OP(=O)(Oc1ccccc1C)Oc1ccccc1C", "Cat": "inactive"}
{"Compound": "Nc1nc(N)c(N)c(N)n1", "Cat": "inactive"}
{"Compound": "C[C@@H]1CC2=CC(=O)CC[C@@H]2[C@H]2CC[C@@]3(C)[C@@H](CC[C@]3(C)O)[C@@H]21", "Cat": "inactive"}
{"Compound": "CCCCCON=O", "Cat": "inactive"}
{"Compound": "CC(C)N(C(=O)SC/C(Cl)=C/Cl)C(C)C", "Cat": "inactive"}
{"Compound": "N#Cc1c2ccccc2cc2ccccc12", "Cat": "inactive"}
{"Compound": "O=Cc1ccccc1", "Cat": "inactive"}
{"Compound": "CCC1COC(Cn2cncn2)(c2ccc(Cl)cc2Cl)O1 (stereo unspecified)", "Cat": "inactive"}
{"Compound": "O=P(Cl)(Cl)Cl", "Cat": "inactive"}
{"Compound": "CCOC(=O)CCN(SN(C)C(=O)Oc1cccc2c1OC(C)(C)C2)C(C)C", "Cat": "inactive"}
{"Compound": "O=c1c2ccccc2c(=O)c2c1cc(Cl)c1[nH]c3c([nH]c12)c(Cl)cc1c(=O)c2ccccc2c(=O)c13", "Cat": "active"}
{"Compound": "COP(=S)(NC(C)C)Oc1ccc(C)cc1[N+](=O)[O-] (stereo unspecified)", "Cat": "inactive"}
{"Compound": "CC1CCCC1", "Cat": "inactive"}
{"Compound": "N#CSCc1ccccc1", "Cat": "inactive"}
{"Compound": "CCn1cc[n+](C)c1 (tested in a mixture with another compound)", "Cat": "inactive"}
{"Compound": "Nc1c(Cl)c(Cl)c(Cl)c(Cl)c1Cl", "Cat": "inactive"}
{"Compound": "[O]=[Cr](=[O])([OH])[O][Cr](=[O])(=[O])[OH]", "Cat": "inactive"}
{"Compound": "CC(C)N(C(=O)CCl)c1ccccc1", "Cat": "inactive"}
{"Compound": "CN1C2CCC(C)(C)C1CC(OC(=O)C(O)(c1cccs1)c1cccs1)C2 (stereo unspecified)", "Cat": "inactive"}
{"Compound": "CCCCCCCCCCCCCCn1cc[n+](C)c1", "Cat": "inactive"}
